# Species: Mus musculus
# assay_overview: Concentration of the Compound that inhibits electrically-induced contractions of the mouse vas deferens by 50%
# Format: functional, organism-based
outcome_measure: EC50 (nM)
Give the value, in units of nM, as a plain number.

[
  {
    "compound": "COC(=O)[C@H]1NC(=O)C(Cc2ccccc2)/C=C\\CNC(=O)[C@@H](NC(=O)[C@@H](N)Cc2c(C)cc(O)cc2C)C(C)(C)SSC1(C)C (single isomer, unassigned; more polar)",
    "EC50 / nM": 247
  }
]

Now, please, on to the next compound.
Q: Using the record for COC(=O)[C@H]1NC(=O)C(Cc2ccccc2)OCCNC(=O)[C@@H](NC(=O)[C@@H](N)Cc2c(C)cc(O)cc2C)C(C)(C)SSC1(C)C (single isomer, unassigned; less polar) , report its EC50.
Result: 143

* * *

# test_system: Delta-type opioid receptor (Rattus norvegicus)
# Sequence (P33533 whole entry): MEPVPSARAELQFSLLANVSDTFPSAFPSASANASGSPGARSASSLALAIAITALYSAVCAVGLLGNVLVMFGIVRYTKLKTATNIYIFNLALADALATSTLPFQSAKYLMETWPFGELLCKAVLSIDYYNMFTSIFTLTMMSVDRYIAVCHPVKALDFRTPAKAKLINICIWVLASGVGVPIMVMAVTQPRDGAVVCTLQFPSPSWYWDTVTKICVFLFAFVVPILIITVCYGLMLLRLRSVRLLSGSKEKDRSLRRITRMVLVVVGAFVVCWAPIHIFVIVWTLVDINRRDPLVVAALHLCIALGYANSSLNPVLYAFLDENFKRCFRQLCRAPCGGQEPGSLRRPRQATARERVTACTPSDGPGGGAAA
# assay_overview: Compound was evaluated for its binding affinity by displacement [3H]- DSLET from Opioid receptor delta 1 by using opioid radioligand binding assay
outcome_measure: pKi
Scale: negative log10 of molar concentration, which is what pKi denotes.

Sample records with pKi:
[
  {
    "compound": "COC(=O)[C@H]1NC(=O)C(Cc2ccccc2)CCCNC(=O)[C@@H](NC(=O)[C@@H](N)Cc2c(C)cc(O)cc2C)C(C)(C)SSC1(C)C (single isomer, unassigned; more polar)",
    "test_system": "Delta-type opioid receptor (Rattus norvegicus)",
    "outcome_measure": "pKi",
    "recorded_measurement": 7.68
  },
  {
    "compound": "COC(=O)[C@H]1NC(=O)C(Cc2ccccc2)OCCNC(=O)[C@@H](NC(=O)[C@@H](N)Cc2c(C)cc(O)cc2C)C(C)(C)SSC1(C)C (single isomer, unassigned; less polar)",
    "test_system": "Delta-type opioid receptor (Rattus norvegicus)",
    "outcome_measure": "pKi",
    "recorded_measurement": 7.37
  },
  {
    "compound": "COC(=O)[C@H]1NC(=O)C(Cc2ccccc2)/C=C\\CNC(=O)[C@@H](NC(=O)[C@@H](N)Cc2c(C)cc(O)cc2C)C(C)(C)SSC1(C)C (single isomer, unassigned; more polar)",
    "test_system": "Delta-type opioid receptor (Rattus norvegicus)",
    "outcome_measure": "pKi",
    "recorded_measurement": 8.64
  },
  {
    "compound": "COC(=O)[C@H]1NC(=O)C(Cc2ccccc2)/C=C\\CNC(=O)[C@@H](NC(=O)[C@@H](N)Cc2c(C)cc(O)cc2C)C(C)(C)SSC1(C)C (single isomer, unassigned; less polar)",
    "test_system": "Delta-type opioid receptor (Rattus norvegicus)",
    "outcome_measure": "pKi",
    "recorded_measurement": 7.35
  }
]

Q: Using the record for COC(=O)[C@H]1NC(=O)C(Cc2ccccc2)CCCNC(=O)[C@@H](NC(=O)[C@@H](N)Cc2c(C)cc(O)cc2C)C(C)(C)SSC1(C)C (single isomer, unassigned; less polar) , report its pKi.
Result: 7.10

Q: Using the record for COC(=O)[C@H]1NC(=O)C(Cc2ccccc2)OCCNC(=O)[C@@H](NC(=O)[C@@H](N)Cc2c(C)cc(O)cc2C)C(C)(C)SSC1(C)C (single isomer, unassigned; more polar) , report its pKi.
Result: 7.04

* * *

These records show log10 Ki for UniProt P33535.
Transform log10 | Measure Ki | Unit nM

[
  {
    "compound": "COC(=O)[C@H]1NC(=O)C(Cc2ccccc2)CCCNC(=O)[C@@H](NC(=O)[C@@H](N)Cc2c(C)cc(O)cc2C)C(C)(C)SSC1(C)C (single isomer, unassigned; more polar)",
    "test_system": "UniProt P33535",
    "log10 Ki": 1.04
  }
]

Q: Any idea what log10 Ki came out for COC(=O)[C@H]1NC(=O)C(Cc2ccccc2)OCCNC(=O)[C@@H](NC(=O)[C@@H](N)Cc2c(C)cc(O)cc2C)C(C)(C)SSC1(C)C (single isomer, unassigned; less polar) on UniProt P33535?
Result: 0.81

Q: Any idea what log10 Ki came out for COC(=O)[C@H]1NC(=O)C(Cc2ccccc2)CCCNC(=O)[C@@H](NC(=O)[C@@H](N)Cc2c(C)cc(O)cc2C)C(C)(C)SSC1(C)C (single isomer, unassigned; less polar) on UniProt P33535?
Result: 2.25

Q: Any idea what log10 Ki came out for COC(=O)[C@H]1NC(=O)C(Cc2ccccc2)OCCNC(=O)[C@@H](NC(=O)[C@@H](N)Cc2c(C)cc(O)cc2C)C(C)(C)SSC1(C)C (single isomer, unassigned; more polar) on UniProt P33535?
Result: 2.18

Q: Any idea what log10 Ki came out for COC(=O)[C@H]1NC(=O)C(Cc2ccccc2)/C=C\CNC(=O)[C@@H](NC(=O)[C@@H](N)Cc2c(C)cc(O)cc2C)C(C)(C)SSC1(C)C (single isomer, unassigned; more polar) on UniProt P33535?
Result: 0.04

Q: Any idea what log10 Ki came out for COC(=O)[C@H]1NC(=O)C(Cc2ccccc2)/C=C\CNC(=O)[C@@H](NC(=O)[C@@H](N)Cc2c(C)cc(O)cc2C)C(C)(C)SSC1(C)C (single isomer, unassigned; less polar) on UniProt P33535?
Result: 1.51

* * *

# test_system: Mu-type opioid receptor (Rattus norvegicus)
# Sequence (P33535 whole entry): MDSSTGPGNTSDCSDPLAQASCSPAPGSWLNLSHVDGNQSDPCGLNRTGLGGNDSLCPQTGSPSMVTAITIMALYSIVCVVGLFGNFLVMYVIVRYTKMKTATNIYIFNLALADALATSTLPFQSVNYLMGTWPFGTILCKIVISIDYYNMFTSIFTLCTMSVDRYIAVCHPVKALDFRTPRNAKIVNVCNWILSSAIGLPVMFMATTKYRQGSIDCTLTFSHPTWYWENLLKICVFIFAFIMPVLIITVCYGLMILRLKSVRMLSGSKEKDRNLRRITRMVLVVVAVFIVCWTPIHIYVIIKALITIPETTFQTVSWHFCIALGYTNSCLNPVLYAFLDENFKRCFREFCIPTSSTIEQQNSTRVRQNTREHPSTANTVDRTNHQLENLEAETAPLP
# assay_overview: Ratio on opioid receptor mu (ki(nM)) to the opioid receptor delta (Ki(nM))
One threshold, 0.5, splits the recorded Ratio values: lower ones are Yes, equal or higher ones are No.

Look over these answered cases.
[
  {
    "compound": "COC(=O)[C@H]1NC(=O)C(Cc2ccccc2)OCCNC(=O)[C@@H](NC(=O)[C@@H](N)Cc2c(C)cc(O)cc2C)C(C)(C)SSC1(C)C (single isomer, unassigned; less polar)",
    "answer_label": "Yes"
  },
  {
    "compound": "COC(=O)[C@H]1NC(=O)C(Cc2ccccc2)CCCNC(=O)[C@@H](NC(=O)[C@@H](N)Cc2c(C)cc(O)cc2C)C(C)(C)SSC1(C)C (single isomer, unassigned; less polar)",
    "answer_label": "No"
  },
  {
    "compound": "COC(=O)[C@H]1NC(=O)C(Cc2ccccc2)/C=C\\CNC(=O)[C@@H](NC(=O)[C@@H](N)Cc2c(C)cc(O)cc2C)C(C)(C)SSC1(C)C (single isomer, unassigned; less polar)",
    "answer_label": "No"
  }
]

Switching to the query record.
Q: For COC(=O)[C@H]1NC(=O)C(Cc2ccccc2)OCCNC(=O)[C@@H](NC(=O)[C@@H](N)Cc2c(C)cc(O)cc2C)C(C)(C)SSC1(C)C (single isomer, unassigned; more polar) , is the recorded Ratio below the cut-off of 0.5?
Result: No

The reported measurements were obtained from ChEMBL document CHEMBL1125510.
